# Test Name: Kinetics of lactone ring opening in PBS buffer (HPLC)
# Format: physicochemical
# Test Context: PBS
Exercise: state measured % Lactone at Equilibrium for each of the compounds provided.

Value lookup for % Lactone at Equilibrium; key = `CC[C@@]1(O)C(=O)OCc2c1cc1n(c2=O)Cc2c-1nc1ccc(O)cc1c2[Si](C)(C)C(C)(C)C`
10.2 +/− 0.3%

Quick one: `CC[C@@]1(O)C(=O)OCc2c1cc1n(c2=O)Cc2c-1nc1ccccc1c2[Si](C)(C)CCCCl`
12.0 +/− 0.5%

Quick one: CCC1(O)C(=O)OCc2c1cc1n(c2=O)Cc2c-1nc1ccccc1c2[Si](C)(C)C(C)(C)C (stereo in doubt)
12.2 +/− 0.4%

Quick one: `CC[C@@]1(O)C(=O)OCc2c1cc1n(c2=O)Cc2c-1nc1ccc(O)cc1c2[Si](C)(C)CCCCl`
11.3 +/− 1.8%

Quick one: CC[C@@]1(O)C(=O)OCc2c1cc1n(c2=O)Cc2cc3ccccc3nc2-1 [CPT, (20S)-Camptothecin, reference compound]
17 +/− 2.0%

Quick one: CCC1(O)C(=O)OCc2c1cc1n(c2=O)Cc2c-1nc1ccc(N)cc1c2[Si](C)(C)C (stereo in doubt)
10.5 +/− 0.3%

Quick one: `CC[C@@]1(O)C(=O)OCc2c1cc1n(c2=O)Cc2c-1nc1ccc(O)cc1c2CC[Si](C)(C)C`
13.7 +/− 0.7%

----------
# Test Name: Kinetics of lactone ring opening in PBS buffer (HPLC)
# Assay type: physicochemical
# Test Context: PBS
Observed Property: % Lactone at Equilibrium

Value lookup for % Lactone at Equilibrium; key = CC[C@@]1(O)C(=O)OCc2c1cc1n(c2=O)Cc2c-1nc1ccccc1c2[Si](C)(C)CCCN(C)C.Cl [DB-104]
7.5 +/− 0.2%

Quick one: CC[C@@]1(O)C(=O)OCc2c1cc1n(c2=O)Cc2c-1nc1ccc(N)cc1c2CC[Si](C)(C)C [DB-173]
11.9 +/− 0.3%

Quick one: CC[C@@]1(O)C(=O)OCc2c1cc1n(c2=O)Cc2c-1nc1ccc(O)cc1c2[Si](C)(C)CCCN(C)C.Cl [DB-124]
8.9 +/− 0.3%

Quick one: CC[C@@]1(O)C(=O)OCc2c1cc1n(c2=O)Cc2c-1nc1ccccc1c2[Si](C)(C)C [Example 1, (20S)-7-trimethylsilylcamptothecin]
11.1 +/− 0.1%

----------
# Test Name: Kinetics of lactone ring opening in whole human blood (HPLC);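 further: hydrolytic opening of the camptothecin lactone ring followed over time by quantitative C18 reversed-phase HPLC in human whole blood at physiological temperature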
# Test Context: Whole Blood, physiological temperature
Observed Property: % Lactone at Equilibrium (%)
Numbers only here, please. The scale is %.

Value lookup for % Lactone at Equilibrium; key = CC[C@@]1(O)C(=O)OCc2c1cc1n(c2=O)Cc2c-1nc1ccc(O)cc1c2[Si](C)(C)C(C)(C)C [DB-67]
30

Quick one: CCc1c2c(nc3ccc(OC(=O)N4CCC(N5CCCCC5)CC4)cc13)-c1cc3c(c(=O)n1C2)COC(=O)[C@]3(O)CC [IRT, irinotecan, reference compound]
21.0

Quick one: CCc1c2c(nc3ccc(O)cc13)-c1cc3c(c(=O)n1C2)COC(=O)[C@]3(O)CC [SN-38, 10-hydroxy-7-ethylcamptothecin, reference compound]
19.5

----------
Exercise: state measured half-life for each of the compounds provided.
# Test Name: in vitro
# Test Context: human, whole blood
Numbers only here, please. The scale is min.

Value lookup for half-life; key = `CC[C@@]1(O)C(=O)OCc2c1cc1n(c2=O)Cc2c-1nc1ccc(O)cc1c2[Si](C)(C)C(C)(C)C`
130

Quick one: CC[C@@]1(O)C(=O)OCc2c1cc1n(c2=O)Cc2cc3c(CN(C)C)c(O)ccc3nc2-1 [Topotecan, topotecan, reference compound]
30.9

Quick one: CC[C@@]1(O)C(=O)OCc2c1cc1n(c2=O)Cc2cc3ccccc3nc2-1 [CPT, (20S)-Camptothecin, reference compound]
21.6

Quick one: `CC[C@@]1(O)C(=O)OCc2c1cc1n(c2=O)Cc2c-1nc1ccc(N)cc1c2CC[Si](C)(C)C`
69

----------
Exercise: state measured % Lactone at Equilibrium for each of the molecules provided.
# Test Name: Kinetics of lactone ring opening in PBS containing HSA (HPLC)
# Test Context: HSA (PBS containing 30 mg/ml HSA)

Value lookup for % Lactone at Equilibrium; key = `CC[C@@]1(O)C(=O)OCc2c1cc1n(c2=O)Cc2c-1nc1ccc(O)cc1c2[Si](C)(C)CCCN(C)C.Cl`
12.2 +/− 0.3%

Quick one: CC[C@@]1(O)C(=O)OCc2c1cc1n(c2=O)Cc2cc3c(CN(C)C)c(O)ccc3nc2-1 [Topotecan, topotecan, reference compound]
7.06 +/− 0.3%

Quick one: `CC[C@@]1(O)C(=O)OCc2c1cc1n(c2=O)Cc2c-1nc1ccccc1c2CC[Si](C)(C)C`
4.3 +/− 1.0%

Quick one: CC[C@@]1(O)C(=O)OCc2c1cc1n(c2=O)Cc2cc3ccccc3nc2-1 [CPT, (20S)-Camptothecin, reference compound]
<0.5%

Quick one: `CC[C@@]1(O)C(=O)OCc2c1cc1n(c2=O)Cc2c-1nc1ccc(O)cc1c2[Si](C)(C)CCCCl`
17.2 +/− 0.7%

Quick one: `CC[C@@]1(O)C(=O)OCc2c1cc1n(c2=O)Cc2c-1nc1ccc(O)cc1c2[Si](C)(C)C(C)(C)C`
10.5 +/− 2.0%

Quick one: `CC[C@@]1(O)C(=O)OCc2c1cc1n(c2=O)Cc2c-1nc1ccccc1c2[Si](C)(C)CCCCl`
2.7 +/− 0.2%

----------
Exercise: state measured t1/2 for each of the compounds provided.
# Test Name: Kinetics of lactone ring opening in PBS containing HSA (HPLC)
# Test Context: HSA (PBS containing 30 mg/ml HSA)
Numbers only here, please. The scale is min.

Value lookup for t1/2; key = `CC[C@@]1(O)C(=O)OCc2c1cc1n(c2=O)Cc2c-1nc1ccc(O)cc1c2[Si](C)(C)CCCN(C)C.Cl`
40.0

Quick one: CC[C@@]1(O)C(=O)OCc2c1cc1n(c2=O)Cc2cc3ccccc3nc2-1 [CPT, (20S)-Camptothecin, reference compound]
11.9

Quick one: `CC[C@@]1(O)C(=O)OCc2c1cc1n(c2=O)Cc2c-1nc1ccc(O)cc1c2[Si](C)(C)CCCCl`
48.0

Quick one: `CC[C@@]1(O)C(=O)OCc2c1cc1n(c2=O)Cc2c-1nc1ccccc1c2[Si](C)(C)CCCCl`
16.0

Quick one: `CC[C@@]1(O)C(=O)OCc2c1cc1n(c2=O)Cc2c-1nc1ccccc1c2CC[Si](C)(C)C`
86.1

Quick one: `CC[C@@]1(O)C(=O)OCc2c1cc1n(c2=O)Cc2c-1nc1ccc(O)cc1c2[Si](C)(C)C(C)(C)C`
119.0

----------
# System: DC-3F (hamster lung) cells
# Test Name: Cytotoxicity assay, DC-3F cells (sulforhodamine B protein content)
# Type: cell-based
# Test Context: Mesocricetus auratus, DC3F; DC-3F cells, sulforhodamine B; read-out: Inhibition of cancer cell growth IC50, DC-3F
So basically, if IC50 comes in under 7 nM it's true, and if it's 7 nM or more it's false.

Hello, is IC50 of the following compound strictly smaller than 7 nM? `CC[C@@]1(O)C(=O)OCc2c1cc1n(c2=O)Cc2c-1nc1ccccc1c2[Si](C)(C)CCCCl`
true

Quick one: CC[C@@]1(O)C(=O)OCc2c1cc1n(c2=O)Cc2c-1nc1ccccc1c2[Si](C)(C)CC1CCC2CC1C2(C)C (stereo partly drawn)
false

Quick one: CCC1(O)C(=O)OCc2c1cc1n(c2=O)Cc2c-1nc1cc(F)ccc1c2[Si](C)(C)C (stereo in doubt)
true

Quick one: `CC[C@@]1(O)C(=O)OCc2c1cc1n(c2=O)Cc2c-1nc1ccc(OC(C)=O)cc1c2[Si](C)(C)C(C)(C)C`
true

Quick one: CCc1c2c(nc3ccc(OC(=O)N4CCC(N5CCCCC5)CC4)cc13)-c1cc3c(c(=O)n1C2)COC(=O)[C@]3(O)CC [IRT, irinotecan, reference compound]
false

----------
# Test Name: Equilibrium binding to DMPC small unilamellar vesicles (fluorescence anisotropy titration)
# Test Context: PBS buffer at PH 7.4 and 37° C.
So basically, if KDMPC overall association constant comes in under 300 M⁻¹ it's yes, and if it's 300 M⁻¹ or more it's no.

Hello, is KDMPC overall association constant of the following compound strictly smaller than 300 M⁻¹? `CC[C@@]1(O)C(=O)OCc2c1cc1n(c2=O)Cc2c-1nc1ccc(N)cc1c2CC[Si](C)(C)C`
no

Quick one: `CC[C@@]1(O)C(=O)OCc2c1cc1n(c2=O)Cc2c-1nc1ccc(O)cc1c2[Si](C)(C)C(C)(C)C`
no

Quick one: CCc1c2c(nc3ccc(O)cc13)-c1cc3c(c(=O)n1C2)COC(=O)[C@]3(O)CC [SN-38, 10-hydroxy-7-ethylcamptothecin, reference compound]
yes

Quick one: `CC[C@@]1(O)C(=O)OCc2c1cc1n(c2=O)Cc2c-1nc1ccccc1c2CC[Si](C)(C)C`
no

Quick one: CCC1(O)C(=O)OCc2c1cc1n(c2=O)Cc2c-1nc1ccc(OC)cc1c2C (stereo not shown)
yes

Quick one: CCc1c2c(nc3ccccc13)-c1cc3c(c(=O)n1C2)COC(=O)[C@]3(O)CC [7-ethyl-20(S)-camptothecin]
yes

Quick one: CCCc1c2c(nc3ccc(O)cc13)-c1cc3c(c(=O)n1C2)COC(=O)C3(O)CC (stereo not shown) [7-propyl-10-hydroxycamptothecin]
no

Origin of measurements: patent US6743917B2
